- System: mice bearing PSMA-expressing LNCAP cancer xenografts
- method_summary: Biodistribution of 68Ga-labeled compounds
- Type: in vivo
- measurement_setup: 3 h post-injection
Recorded measurements of Blood uptake, one per entry
Respond with the bare value in % ID/g.

q: Dear colleague, I am looking for the recorded Blood uptake of the following molecule: O=C([O-])CN1CCN(CC(=O)[O-])CCN(CC(=O)NCCCC[C@H](NC(=O)CNC(=O)CCCc2ccc(Br)cc2)C(=O)NC[C@H]2CC[C@H](C(=O)N[C@@H](Cc3ccc4ccccc4c3)C(=O)NCCCC[C@H](NC(=O)N[C@@H](CCC(=O)O)C(=O)O)C(=O)O)CC2)CCN(CC(=O)[O-])CC1.[68Ga+3] [^68Ga-HTK03058]
a: 21.2

q: Dear colleague, I am looking for the recorded Blood uptake of the following molecule: O=C([O-])CN1CCN(CC(=O)[O-])CCN(CC(=O)NCCCC[C@H](NC(=O)CNC(=O)CCCc2ccc([N+](=O)[O-])cc2)C(=O)NC[C@H]2CC[C@H](C(=O)N[C@@H](Cc3ccc4ccccc4c3)C(=O)NCCCC[C@H](NC(=O)N[C@@H](CCC(=O)O)C(=O)O)C(=O)O)CC2)CCN(CC(=O)[O-])CC1.[68Ga+3] [^68Ga-HTK03089]
a: 2.52

q: Dear colleague, I am looking for the recorded Blood uptake of the following molecule: COc1ccc(CCCC(=O)NCC(=O)N[C@@H](CCCCNC(=O)CN2CCN(CC(=O)[O-])CCN(CC(=O)[O-])CCN(CC(=O)[O-])CC2)C(=O)NC[C@H]2CC[C@H](C(=O)N[C@@H](Cc3ccc4ccccc4c3)C(=O)NCCCC[C@H](NC(=O)N[C@@H](CCC(=O)O)C(=O)O)C(=O)O)CC2)cc1.[68Ga+3] [^68Ga-HTK03086]
a: 6.60

q: Dear colleague, I am looking for the recorded Blood uptake of the following molecule: O=C([O-])CN1CCN(CC(=O)[O-])CCN(CC(=O)NCCCC[C@H](NC(=O)CNC(=O)CCCc2ccc(I)cc2)C(=O)NC[C@H]2CC[C@H](C(=O)N[C@@H](Cc3ccc4ccccc4c3)C(=O)NCCCC[C@H](NC(=O)N[C@@H](CCC(=O)O)C(=O)O)C(=O)O)CC2)CCN(CC(=O)[O-])CC1.[68Ga+3] [^68Ga-HTK03024]
a: 23.9

q: Dear colleague, I am looking for the recorded Blood uptake of the following molecule: O=C([O-])CN1CCN(CC(=O)[O-])CCN(CC(=O)NCCCC[C@H](NC(=O)CNC(=O)CCCc2ccc(F)cc2)C(=O)NC[C@H]2CC[C@H](C(=O)N[C@@H](Cc3ccc4ccccc4c3)C(=O)NCCCC[C@H](NC(=O)N[C@@H](CCC(=O)O)C(=O)O)C(=O)O)CC2)CCN(CC(=O)[O-])CC1.[68Ga+3] [^68Ga-HTK03085]
a: 2.10

q: Dear colleague, I am looking for the recorded Blood uptake of the following molecule: Cc1ccc(CCCC(=O)NCC(=O)N[C@@H](CCCCNC(=O)CN2CCN(CC(=O)[O-])CCN(CC(=O)[O-])CCN(CC(=O)[O-])CC2)C(=O)NC[C@H]2CC[C@H](C(=O)N[C@@H](Cc3ccc4ccccc4c3)C(=O)NCCCC[C@H](NC(=O)N[C@@H](CCC(=O)O)C(=O)O)C(=O)O)CC2)cc1.[68Ga+3] [^68Ga-HTK03090]
a: 13.6
